Data provenance: patent US20120129811A1

I'd appreciate it if you could supply pIC50 values for the items below.
- tested system: full-length proMMP9(1-707) activation by catalytic MMP3 (Homo sapiens, UniProt P14780, R574P)
- Construct: MMP3: E. coli
- Sequence (P14780 20-707 R574P): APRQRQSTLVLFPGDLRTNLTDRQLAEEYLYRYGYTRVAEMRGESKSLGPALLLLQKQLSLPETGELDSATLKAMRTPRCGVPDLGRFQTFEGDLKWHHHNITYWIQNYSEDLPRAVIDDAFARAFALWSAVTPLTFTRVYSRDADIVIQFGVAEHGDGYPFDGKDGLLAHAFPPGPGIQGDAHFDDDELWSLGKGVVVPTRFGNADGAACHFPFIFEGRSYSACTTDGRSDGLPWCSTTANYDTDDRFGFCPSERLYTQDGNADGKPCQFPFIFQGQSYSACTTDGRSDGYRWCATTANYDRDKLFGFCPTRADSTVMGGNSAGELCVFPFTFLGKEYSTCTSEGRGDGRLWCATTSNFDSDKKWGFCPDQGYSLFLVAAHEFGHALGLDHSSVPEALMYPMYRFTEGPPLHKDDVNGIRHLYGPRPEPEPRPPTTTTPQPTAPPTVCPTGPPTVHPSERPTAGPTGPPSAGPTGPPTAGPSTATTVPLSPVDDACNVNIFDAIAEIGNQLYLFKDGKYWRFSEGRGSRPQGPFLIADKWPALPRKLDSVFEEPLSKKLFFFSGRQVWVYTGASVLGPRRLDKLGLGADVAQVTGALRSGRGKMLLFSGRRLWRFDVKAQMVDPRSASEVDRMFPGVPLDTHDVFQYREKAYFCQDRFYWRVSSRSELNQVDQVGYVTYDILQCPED
- experimental protocol: proMMP9/MMP3 P126 Activation Assay
Numbers only, as −log10 of the molar value.

[
  {
    "compound structure": "COc1ccc(Cl)cc1Nc1nc2c(ccc3c2ncn3C)s1",
    "pIC50": 6.77
  },
  {
    "compound structure": "COc1ccccc1Nc1nc2c(ccc3sc(N)nc32)s1",
    "pIC50": 5.55
  },
  {
    "compound structure": "Cc1nc2ccc3sc(Nc4cc(F)ccc4OC(C)C)nc3c2n1C",
    "pIC50": 6.39
  },
  {
    "compound structure": "CCn1cc2c(ccc3sc(Nc4cc(S(C)(=O)=O)ccc4OC)nc32)n1",
    "pIC50": 6.24
  }
]

Kindly review the next compound as well.
Task: I am curious: what pIC50 value has been reported for `COc1ccc(Nc2nc3c(ccc4c3ncn4C)s2)c(OC)c1` ?
Output: 5.40
